Data provenance: patent US20240408169A1

# Tested on: OVCAR3 cells
# assayInfo: MTT proliferation assay, OVCAR3;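 further: compound given as an 8- or 10-point series, one day after plating, with exposure covering roughly 3-4 cell doublings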
# Format: cell-based
# conditionDetails: 5 days compound exposure, 1:3 serial dilution starting at 10 μM
*1 amine or outer side, *2 acyl side, *3 side chain or, on linkers, in order; H or OH if unused. Where a SMILES comes first, the peptide text is derived from it. Bridges are numbered along the chain shown (N, C = ends). [ ]: non-standard residue; d: D form. The star is where a group is joined. X58 = CC(C)C(=O)N1CC=C(c2ccc(Cl)cc2C[C@@H](C(=O)[*:2])N(C)[*:1])CC1; X68 = CN([C@@H](Cc1cc(Cl)ccc1-c1cnn(C2CC2)c1)C(=O)[*:2])[*:1]; X83 = CN([C@@H](Cc1cc(Cl)ccc1-c1cnn2c1COCC2)C(=O)[*:2])[*:1]; NMehhhLys(Me) = CN([C@@H](CCCCCCCN(C)[*:3])C(=O)[*:2])[*:1]; X154 = Cc1oncc1-c1ccc(Cl)cc1C[C@@H](C(=O)[*:2])N(C)[*:1]; NMe(hhhLys) = CN([C@@H](CCCCCCCN[*:3])C(=O)[*:2])[*:1]; X33 = CN([C@@H](Cc1cc(Cl)cc2c1OCCO2)C(=O)[*:2])[*:1]; cBuCO(3,3-F2-1-CF3) = O=C(C1(C(F)(F)F)CC(F)(F)C1)*; Pro(trans-4-F) = O=C(O)[C@@H]1C[C@@H](F)CN1; Gly(cPr) = N[C@H](C(=O)O)C1CC1
Task for the reader: assign each of the following compounds its reported GI50.
Expressed in nM, but write only the number.

Give GI50 for CC(C)C[C@@H]1NC(=O)[C@@H](N(C)C(=O)[C@@H](NC(=O)[C@@H]2C[C@@H](F)CN2C(=O)C2(C(F)(F)F)CC(F)(F)C2)C2CC2)CCCCCCCN(C)C(=O)[C@H](Cc2cc(Cl)cc3c2OCCO3)N(C)C1=O [Example 321] ({cBuCO(3,3-F2-1-CF3)}-[Pro(trans-4-F)][Gly(cPr)][NMehhhLys(Me)]L[X33]; lactam 3-C)
10

Using the record for Cc1oncc1-c1ccc(Cl)cc1C[C@H]1C(=O)N(C)CCCCCCC[C@H](N(C)C(=O)[C@@H](NC(=O)[C@@H]2C[C@@H](F)CN2C(=O)C2(C(F)(F)F)CC(F)(F)C2)C2CC2)C(=O)N[C@@H](CC(C)C)C(=O)N1C [Example 212] ({cBuCO(3,3-F2-1-CF3)}-[Pro(trans-4-F)][Gly(cPr)][NMehhhLys(Me)]L[X154]; lactam 3-C) , state its measured GI50.
80

Indicate its recorded GI50; the compound in question is CC(C)C[C@@H]1NC(=O)[C@@H](N(C)C(=O)[C@@H](NC(=O)[C@@H]2C[C@@H](F)CN2C(=O)C2(C(F)(F)F)CC(F)(F)C2)C2CC2)CCCCCCCN(C)C(=O)[C@H](Cc2cc(Cl)ccc2-c2cnn3c2COCC3)N(C)C1=O [Example 233] ({cBuCO(3,3-F2-1-CF3)}-[Pro(trans-4-F)][Gly(cPr)][NMehhhLys(Me)]L[X83]; lactam 3-C)
30

Consider the compound CC(C)C[C@@H]1NC(=O)[C@@H](N(C)C(=O)[C@@H](NC(=O)[C@@H]2C[C@@H](F)CN2C(=O)C2(C(F)(F)F)CC(F)(F)C2)C2CC2)CCCCCCCNC(=O)[C@H](Cc2cc(Cl)ccc2C2=CCN(C(=O)C(C)C)CC2)N(C)C1=O [Example 98] ({cBuCO(3,3-F2-1-CF3)}-[Pro(trans-4-F)][Gly(cPr)][NMe(hhhLys)]L[X58]; lactam 3-C) . State its measured GI50.
20

Identify measured GI50 associated with CC(C)C[C@@H]1NC(=O)[C@@H](N(C)C(=O)[C@@H](NC(=O)[C@@H]2C[C@@H](F)CN2C(=O)C2(C(F)(F)F)CC(F)(F)C2)C2CC2)CCCCCCCN(C)C(=O)[C@H](Cc2cc(Cl)ccc2-c2cnn(C3CC3)c2)N(C)C1=O [Example 110] ({cBuCO(3,3-F2-1-CF3)}-[Pro(trans-4-F)][Gly(cPr)][NMehhhLys(Me)]L[X68]; lactam 3-C)
10
